The origin of these recorded values is PubChem BioAssay (NCI).

Recorded GI50 values (NCI-H460 lung) are given below.

Take a look at these entries with their results.
Hello, I am looking for reported GI50 with NCI-H460 lung for "NCCNc1nc2ccccc2c2c(=O)c3cc(F)cc(Cl)c3sc12" . Could you help?
1.7 µM

Requested read-out GI50, target or system NCI-H460 lung, entry CCCCCCCCCCCCCCCCCCNC(=O)[C@H]1CSC(c2ccc(F)c(OC)c2)N1 (stereo not given in full)
0.211 µM

Please provide the recorded GI50 for "COc1ccc2nc3cc(Cl)ccc3c(Nc3ccc(O)c(CN4CCCC4)c3)c2c1" , tested on NCI-H460 lung.
2.46 µM

// fetch NCI-H460 lung GI50 for "Fc1ccc(-c2cc(-c3cn[nH]c3-c3ccccn3)ccn2)cc1"
24.7 µM

Please find the next compound below.
Lab note: need GI50 for "O=C(Nc1cccc(Cl)c1)c1cc(Cl)ccc1O" on NCI-H460 lung, anyone have it?
0.488 µM
